- Test system: SK-MEL-5 melanoma
- assay: NCI tumour cell line growth inhibition, 48 h; in the data active means GI50 below about 0.43 µM; inactive means the rest
Possible outcomes: active, inactive

                            compound_smiles  class_assignment
0  Cc1c(Cl)cccc1C(=O)Nc1nc2c(s1)CN(C(=O)Nc1cccc(C(F)(F)F)c1)CC2            active
1   O=C(CCCc1ccc(N(CCCl)CCCl)cc1)NCc1ccccc1          inactive
2  O=C1NC(=O)C(c2c[nH]c3ccccc23)=C1c1c[nH]c2ccccc12          inactive

====

Each record here notes measured TGI.
- Tested on: 786-0 renal
- assay: NCI tumour cell line growth inhibition, 48 h
Where a SMILES comes first, the peptide text is derived from it. Bridges are numbered along the chain shown (N, C = ends). The star is where a group is joined. Cbz = O=C(OCc1ccccc1)*

compound	study_target	TGI
CNC(=O)C1CCCCNC(=O)CCC(NC(=O)OCc2ccccc2)C(=O)N1 (stereo not drawn) (Cbz-Glu-Lys-NHMe; lactam 1-2; configuration not given here)	786-0 renal	> 100 µM
CCOc1ccc(N(C)c2ccc(/C=C/C3=[N+](C)c4ccccc4C3(C)C)cc2)cc1	786-0 renal	1.92 µM
Cc1ccc(S(=O)(=O)NNC(=O)Nc2cccc(C(F)(F)F)c2)cc1	786-0 renal	> 100 µM
O=C1C2C3C4C1C1C2[C@H](OCc2ccccc2)C3C1[C@H]4OCc1ccccc1 (some centres undefined)	786-0 renal	> 100 µM
NC(N)=N/N=C/c1c(-c2ccccc2[N+](=O)[O-])nc2sccn12	786-0 renal	35.3 µM
Nc1c(C(=O)Nc2cccc(Cl)c2)sc2nc3c(cc12)C(=O)CCC3	786-0 renal	> 100 µM
O=C(N/N=C/c1ccc(Cl)cc1)c1ccc(NC(=O)c2ccccn2)cc1	786-0 renal	59.6 µM
CC(C)=CCC/C(C)=C/CC/C(C)=C/CSC[C@H](NC(=O)CCCCCN1CCN(C)CC1)C(=O)NC1CCCCCC1	786-0 renal	3.19 µM
O=P1(NCCCl)OCCCN1CCCl (centres undefined)	786-0 renal	> 466 µM

====

- System: SR leukemia
- assay: NCI tumour cell line growth inhibition, 48 h
parameter: TGI

>>> print(df.to_string())
                                    compound  obs_value
 0                   Cc1cn2cc(-c3cccs3)nc2s1   > 100 µM
 1                           Cc1ccc(N)c(S)c1    45.8 µM
 2  O=c1c2ccccc2nc(-c2cccc([N+](=O)[O-])c2)n1O   > 100 µM
 3  COc1cc2nc(-c3cccs3)nc(Nc3cccc([N+](=O)[O-])c3)c2cc1OC    34.2 µM
 4  COc1ccc(C2=NN(C(N)=S)C(c3ccc4c(c3)OCO4)C2)cc1 (configuration not stated)    11.8 µM
 5  COC(=O)N[C@H]1CCc2cc(OC)c(OC)c(OC)c2-c2ccc(SC)c(=O)cc21   > 100 µM
 6  CCC(=C(c1ccc(OCCN2CCCCC2)cc1)c1ccc(OCCN2CCCCC2)cc1)c1ccc(Cl)cc1    1.27 µM
 7  O=C(O)c1ccccc1CN1CCCC(C(=O)O)C1 (configuration not stated)   > 100 µM
 8  COc1ccc(N2C(=O)c3cc([N+](=O)[O-])cnc3S2(=O)=O)cc1   > 100 µM
 9  N#CCCNc1nonc1-c1nc2ccccc2n1CC(=O)c1ccc(N)cc1   > 100 µM
10  CC(C)=CCC[C@@H](C)[C@H]1CC[C@@]2(C)[C@@H]3CC[C@H]4C(C)(C)[C@@H](O)CC[C@@]45C[C@@]35CC[C@]12C  > 67.1 µM
11                        C=CCc1cccc(C=O)c1O   > 100 µM
12   CCOC(=O)c1nc2ccccc2nc1Oc1cc(OC)cc(OC)c1   > 100 µM
13                Clc1ccc(Cc2nc3ccccc3o2)cc1   > 100 µM
14  Cc1nnc2n1N=C(c1cc(F)c(Cl)cc1Cl)/C(=C/c1ccc(-c3ccc([N+](=O)[O-])cc3)o1)S2   > 100 µM
15     C=C=C[P+](c1ccccc1)(c1ccccc1)c1ccccc1    60.8 µM
16             O=c1[nH]c(=S)[nH]cc1CN1CCOCC1   > 100 µM
17  COc1cccc2c1nc(C(F)F)n2-c1nc(-c2ccc(NS(=O)(=O)CCN(C)C)cc2)nc(N2CCOCC2)n1    3.87 µM
18           CCN(CC)C(=O)CCn1ccc(=O)[nH]c1=O   > 100 µM
19      O=C1c2ccccc2-c2nnc3c(c21)Cc1ccccc1C3    > 10 µM
20  O=C1Cc2c(-c3cccs3)cc(-c3ccccc3)nc2-c2ccccc2N1   > 100 µM
21  C/C(CN1C(=O)c2ccccc2C1=O)=N\NS(=O)(=O)c1ccc2ccccc2c1   > 100 µM
